# ASSAY METHOD TEXT: n-octanol-water partition coefficient (logP), shake flask method
# Type: physicochemical
MEASURED QUANTITY: logP
Lab note: jot down the number only; don't add units.

Record O=C(O)c1ccccc1O [SA, salicylic acid, reference compound] . Reported logP: 1.32

====

molecules and their reported zone of inhibition at 600000 µg/mL
# System: Escherichia coli
# ASSAY METHOD TEXT: Disc diffusion antimicrobial susceptibility test, Escherichia coli
# Assay type: cell-based
# CONDITION PARAMETERS: Escherichia coli, 24 h; solution transferred to disc 600 mg cm^−3; read-out: Inhibition diameter
Only the number, expressed in mm, is required.

Tested system Escherichia coli; zone of inhibition at 600000 µg/mL recorded for CC(C)OC(=O)C(N)C(C)C.O=C(O)c1ccccc1O [[L-ValOiPr][SA]] was 12.6

Tested system Escherichia coli; zone of inhibition at 600000 µg/mL recorded for O=C(O)c1ccccc1O [SA, salicylic acid, reference compound] was 11

Tested system Escherichia coli; zone of inhibition at 600000 µg/mL recorded for CC(C)OC(=O)[C@@H](N)[C@@H](C)O.O=C(O)c1ccccc1O [[L-ThrOiPr][SA], L-threonine isopropyl ester salicylate] was 9.3

Tested system Escherichia coli; zone of inhibition at 600000 µg/mL recorded for CSCC[C@H](N)C(=O)OC(C)C.O=C(O)c1ccccc1O [[L-MetOiPr][SA], L-methionine isopropyl ester salicylate] was 18.8

Tested system Escherichia coli; zone of inhibition at 600000 µg/mL recorded for CC[C@H](C)[C@H](N)C(=O)OC(C)C.O=C(O)c1ccccc1O [[L-IleOiPr][SA], L-isoleucine isopropyl ester salicylate] was 13.7

====

# ASSAY METHOD TEXT: n-octanol-water partition coefficient (logP), shake flask method
# Type: physicochemical
# CONDITION PARAMETERS: n-octanol-water, shake flask; read-out: LogP
compounds and their reported logP
Lab note: jot down the number only; don't add units.

The following compounds have reported results that may help.
COMPOUND	logP
CC(C)OC(=O)C(N)C(C)C.O=C(O)c1ccccc1O [[L-ValOiPr][SA]]	1.61
CSCC[C@H](N)C(=O)OC(C)C.O=C(O)c1ccccc1O [[L-MetOiPr][SA], L-methionine isopropyl ester salicylate]	1.78
CC(C(=O)O)c1cccc(C(=O)c2ccccc2)c1 (racemic) [KETO, (R,S)-ketoprofen, reference compound]	1.58
CC[C@H](C)[C@H](N)C(=O)OC(C)C.O=C(O)c1ccccc1O [[L-IleOiPr][SA], L-isoleucine isopropyl ester salicylate]	1.6

Here's the next entry for you.
Record CC(C)OC(=O)[C@@H](N)[C@@H](C)O.O=C(O)c1ccccc1O [[L-ThrOiPr][SA], L-threonine isopropyl ester salicylate] . Reported logP: 1.55

====

compounds and their reported zone of inhibition at 400000 µg/mL
# Test system: Escherichia coli
# ASSAY METHOD TEXT: Disc diffusion antimicrobial susceptibility test, Escherichia coli
# Assay type: cell-based
# CONDITION PARAMETERS: Escherichia coli, 24 h; solution transferred to disc 400 mg cm^−3; read-out: Inhibition diameter
Only the number, expressed in mm, is required.

The following compounds have reported results that may help.
COMPOUND	RECORDED VALUE
CC(C)OC(=O)[C@@H](N)[C@@H](C)O.O=C(O)c1ccccc1O [[L-ThrOiPr][SA], L-threonine isopropyl ester salicylate]	7.3
CC(C)OC(=O)C(N)C(C)C.O=C(O)c1ccccc1O [[L-ValOiPr][SA]]	8.9
CC[C@H](C)[C@H](N)C(=O)OC(C)C.O=C(O)c1ccccc1O [[L-IleOiPr][SA], L-isoleucine isopropyl ester salicylate]	7.3

Record O=C(O)c1ccccc1O [SA, salicylic acid, reference compound] . Reported zone of inhibition at 400000 µg/mL: 6.4

Record CSCC[C@H](N)C(=O)OC(C)C.O=C(O)c1ccccc1O [[L-MetOiPr][SA], L-methionine isopropyl ester salicylate] . Reported zone of inhibition at 400000 µg/mL: 16.4
